Conditions: in ethyl acetate, 283.2 K
readoutKind: solubility (mole fraction)
One number for each entry.

The recorded solubility (mole fraction) for entry O=c1c2ccccc2nc2n1CCc1c-2[nH]c2ccccc12 equals 0.00104

###

Conditions: in methanol, 313.2 K
readoutKind: solubility (mole fraction)
One number for each entry.

The recorded solubility (mole fraction) for entry O=c1c2ccccc2nc2n1CCc1c-2[nH]c2ccccc12 equals 0.000161

###

Details: in cyclohexane, 303.2 K
readoutKind: solubility (mole fraction)
Answers are plain numbers.

The recorded solubility (mole fraction) for entry O=c1c2ccccc2nc2n1CCc1c-2[nH]c2ccccc12 equals 1.73e-05

###

Conditions: in ethanol, 293.2 K
readoutKind: solubility (mole fraction)
Answers are plain numbers.

The recorded solubility (mole fraction) for entry O=c1c2ccccc2nc2n1CCc1c-2[nH]c2ccccc12 equals 0.000143

###

Conditions: in diethyl ether, 293.2 K
readoutKind: solubility (mole fraction)
One number for each entry.

The recorded solubility (mole fraction) for entry O=c1c2ccccc2nc2n1CCc1c-2[nH]c2ccccc12 equals 0.000313

###

Details: in cyclohexane, 293.2 K
readoutKind: solubility (mole fraction)
Give bare numbers.

The recorded solubility (mole fraction) for entry O=c1c2ccccc2nc2n1CCc1c-2[nH]c2ccccc12 equals 1.14e-05

###

Settings: in cyclohexane, 323.2 K
readoutKind: solubility (mole fraction)
Numbers only.

The recorded solubility (mole fraction) for entry O=c1c2ccccc2nc2n1CCc1c-2[nH]c2ccccc12 equals 3.78e-05

###

Details: in acetone, 313.2 K
readoutKind: solubility (mole fraction)
Answers are plain numbers.

The recorded solubility (mole fraction) for entry O=c1c2ccccc2nc2n1CCc1c-2[nH]c2ccccc12 equals 0.00149

Attribution: BigSolDB 2.1
